tested on: Staphylococcus epidermidis; experiment: Compound was tested for the inhibition of cell wall biosynthesis and growth against Staphylococcus epidermidis (ATCC 12228) (sensitive strain); type: functional

COMPOUND	SUBJECT OF TEST	MIC, µg/mL
C=C(C/C=C(\C)CCC=C(C)C)CCC(C)(C)/C=C/CC/C(C)=C\CO[C@H](COP(=O)(O)O[C@H]1O[C@@H](C(N)=O)[C@@](C)(O)[C@H](OC(N)=O)[C@@H]1O[C@@H]1O[C@@H](CO[C@@H]2O[C@@H](CO)[C@@H](O)[C@H](O)[C@@H]2O)[C@@H](O[C@@H]2O[C@@H](C)[C@@H](O[C@@H]3O[C@@H](C(=O)NC4=C(O)CCC4=O)[C@H](O)[C@H](O)[C@@H]3O)[C@H](O)[C@@H]2NC(C)=O)[C@@H](O)[C@@H]1NC(C)=O)C(=O)O [MOENOMYCIN]	Staphylococcus epidermidis	0.025
CN[C@H](CC(C)C)C(=O)N[C@H]1C(=O)N[C@@H](CC(N)=O)C(=O)N[C@H]2C(=O)N[C@H]3C(=O)N[C@H](C(=O)N[C@H](C(=O)O)c4cc(O)cc(O)c4-c4cc3ccc4O)[C@H](O)c3ccc(c(Cl)c3)Oc3cc2cc(c3O[C@@H]2O[C@H](CO)[C@@H](O)[C@H](O)[C@H]2O[C@H]2C[C@](C)(N)[C@H](O)[C@H](C)O2)Oc2ccc(cc2Cl)[C@H]1O [VANCOMYCIN]	Staphylococcus epidermidis	3.13

Recorded values, source ChEMBL document CHEMBL1132655.
